System: NCI-H2085
Assay: relative viability (nuclei count vs DMSO), 5 days (fraction); higher = more cells survive
Settings: first compound 0.02 µM
Collected relative viability values appear next to each entry.
Give your answer as a number; write no unit.

Some entries whose results are on file:
• CCNC(=O)c1noc(-c2cc(C(C)C)c(O)cc2O)c1-c1ccc(CN2CCOCC2)cc1 [Luminespib] + Nc1nc2[nH]cc(CCc3ccc(C(=O)N[C@@H](CCC(=O)O)C(=O)O)cc3)c2c(=O)[nH]1 [Pemetrexed] (partner 0.2 µM) = 0.698
• CN1CCN(CCOc2cc(OC3CCOCC3)c3c(Nc4c(Cl)ccc5c4OCO5)ncnc3c2)CC1 [Saracatinib] + NC(=O)Nc1cc(-c2cccc(F)c2)sc1C(=O)N[C@H]1CCCNC1 [AZD7762] (partner 0.2 µM) = 1.06
• CCNC(=O)c1noc(-c2cc(C(C)C)c(O)cc2O)c1-c1ccc(CN2CCOCC2)cc1 [Luminespib] + CC(=O)c1c(C)c2cnc(Nc3ccc(N4CCNCC4)cn3)nc2n(C2CCCC2)c1=O [Palbociclib] (partner 0.5 µM) = 0.453

# input for lookup
Request: Fill blank: measured relative viability of the compound CCNC(=O)c1noc(-c2cc(C(C)C)c(O)cc2O)c1-c1ccc(CN2CCOCC2)cc1 [Luminespib] + CC(=O)Nc1cccc(-n2c(=O)n(C3CC3)c(=O)c3c(Nc4ccc(I)cc4F)n(C)c(=O)c(C)c32)c1 [Trametinib] (partner 0.02 µM) is ____.
Response: 0.33

====

Test system: NCI-H2085
Experiment: relative viability (nuclei count vs DMSO), 5 days (fraction); higher = more cells survive
Conditions: first compound 0.6325 µM
The entries below are paired with their reported relative viability.
Just the number, please.

Please review the following examples before continuing.
* CN1CCN(CCOc2cc(OC3CCOCC3)c3c(Nc4c(Cl)ccc5c4OCO5)ncnc3c2)CC1 [Saracatinib] + CS(=O)(=O)N1CCN(Cc2cc3nc(-c4cccc5[nH]ncc45)nc(N4CCOCC4)c3s2)CC1 [Pictilisib] (partner 1 µM) | 0.481
* Cc1csc(=NC2CCCCC2)n1/N=C/c1ccc(O)c(O)c1O [MIM1] + O=C(c1cc(Cc2n[nH]c(=O)c3ccccc23)ccc1F)N1CCN(C(=O)C2CC2)CC1 [Olaparib] (partner 8 µM) | 0.797
* Cc1csc(=NC2CCCCC2)n1/N=C/c1ccc(O)c(O)c1O [MIM1] + Nc1ncn([C@H]2C[C@H](O)[C@@H](CO)O2)c(=O)n1 [Decitabine] (partner 2 µM) | 0.522
* CN1CCN(CCOc2cc(OC3CCOCC3)c3c(Nc4c(Cl)ccc5c4OCO5)ncnc3c2)CC1 [Saracatinib] + CS(=O)(=O)CCNCc1ccc(-c2ccc3ncnc(Nc4ccc(OCc5cccc(F)c5)c(Cl)c4)c3c2)o1 [Lapatinib] (partner 2 µM) | 0.811
* Cc1csc(=NC2CCCCC2)n1/N=C/c1ccc(O)c(O)c1O [MIM1] + CS(=O)(=O)N1CCN(Cc2cc3nc(-c4cccc5[nH]ncc45)nc(N4CCOCC4)c3s2)CC1 [Pictilisib] (partner 1 µM) | 0.431

Request: Field request: relative viability | item: Cc1csc(=NC2CCCCC2)n1/N=C/c1ccc(O)c(O)c1O [MIM1] + N=C(N)NC(=N)NCCc1ccccc1 [Phenformin] (partner 250 µM)
Response: 0.713

Request: Repeat for the following compound: CN1CCN(CCOc2cc(OC3CCOCC3)c3c(Nc4c(Cl)ccc5c4OCO5)ncnc3c2)CC1 [Saracatinib] + CCNC(=O)c1noc(-c2cc(C(C)C)c(O)cc2O)c1-c1ccc(CN2CCOCC2)cc1 [Luminespib] (partner 0.01 µM)
Response: 0.481

Request: Quick one: CN1CCN(CCOc2cc(OC3CCOCC3)c3c(Nc4c(Cl)ccc5c4OCO5)ncnc3c2)CC1 [Saracatinib] + Cc1nc(Nc2ncc(C(=O)Nc3c(C)cccc3Cl)s2)cc(N2CCN(CCO)CC2)n1 [Dasatinib] (partner 0.075 µM)
Response: 0.345

Request: Thanks! And CN1CCN(CCOc2cc(OC3CCOCC3)c3c(Nc4c(Cl)ccc5c4OCO5)ncnc3c2)CC1 [Saracatinib] + CC1(C)CCC(c2ccc(Cl)cc2)=C(CN2CCN(c3ccc(C(=O)NS(=O)(=O)c4ccc(N[C@H](CCN5CCOCC5)CSc5ccccc5)c(S(=O)(=O)C(F)(F)F)c4)cc3)CC2)C1 [Navitoclax] (partner 0.5 µM) ?
Response: 1.19

Request: Field entry: CN1CCN(CCOc2cc(OC3CCOCC3)c3c(Nc4c(Cl)ccc5c4OCO5)ncnc3c2)CC1 [Saracatinib] + C[C@@H](Oc1cc(-c2cnn(C3CCNCC3)c2)cnc1N)c1c(Cl)ccc(F)c1Cl [Crizotinib] (partner 1 µM)
Response: 0.766
